The measurements presented in this section are drawn from paper PMC4096222.

test system: MDCK cells; conditions: minimum cytotoxic concentration, minimal alterations in cell morphology after 72 h, MDCK
Assay metric: cytotoxicity MCC (µM)
A number alone suffices; assume µM.

Noted for CC12CC34CNCC35CC1(C)C(C)(C5)C2(C)C4.Cl (stereo not shown) : its cytotoxicity MCC reads 100

Memo: Cl.N=C(N)N1CC2C3CCC(C4CC34)C2C1 (stereo not shown) , reported cytotoxicity MCC: 100

// sample C1=CC2C3CNCC3C1C1CC21.Cl (stereo not shown) , its cytotoxicity MCC was 100

Input Cl.N=C(N)N1CC2C3C=CC(C4CC34)C2C1 (stereo not shown) . Output cytotoxicity MCC: 100

The value of cytotoxicity MCC measured for the molecule C1CC(N2CC3C4CCC(C5CC45)C3C2)CCN1.Cl (stereo not shown) turned out to be 20

Form field cytotoxicity MCC, entry Cl.N=C(N)N1CC2C3C=CC(C4C=CC43)C2C1 (stereo not shown) : 20

So for Cl.N=C(N)N1CC2C3CCC(C4CCC43)C2C1 (stereo not shown) , the logged cytotoxicity MCC turned out to be 4

Record summary for C1=CC2C3CC3C1C1CN(C3CCNCC3)CC21.Cl (stereo not shown) : reported cytotoxicity MCC = 100

C1CC2C3CNCC3C1C1CC21.Cl (stereo not shown) yielded cytotoxicity MCC of 100
